- System under test: human plasma kallikrein (human, UniProt P03952 20-390; P03952 391-638)
- Sequence (P03952 20-390, chain 1 of 2): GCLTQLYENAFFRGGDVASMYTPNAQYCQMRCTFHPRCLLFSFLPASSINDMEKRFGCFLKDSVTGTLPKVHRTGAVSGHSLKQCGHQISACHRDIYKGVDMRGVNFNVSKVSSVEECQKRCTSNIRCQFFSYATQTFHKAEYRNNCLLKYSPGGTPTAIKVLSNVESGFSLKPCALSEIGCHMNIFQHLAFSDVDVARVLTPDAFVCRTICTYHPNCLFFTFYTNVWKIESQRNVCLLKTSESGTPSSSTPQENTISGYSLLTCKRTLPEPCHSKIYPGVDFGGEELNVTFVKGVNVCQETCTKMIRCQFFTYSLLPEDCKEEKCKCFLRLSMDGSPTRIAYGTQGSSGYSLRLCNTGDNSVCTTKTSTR
- Sequence (P03952 391-638, chain 2 of 2): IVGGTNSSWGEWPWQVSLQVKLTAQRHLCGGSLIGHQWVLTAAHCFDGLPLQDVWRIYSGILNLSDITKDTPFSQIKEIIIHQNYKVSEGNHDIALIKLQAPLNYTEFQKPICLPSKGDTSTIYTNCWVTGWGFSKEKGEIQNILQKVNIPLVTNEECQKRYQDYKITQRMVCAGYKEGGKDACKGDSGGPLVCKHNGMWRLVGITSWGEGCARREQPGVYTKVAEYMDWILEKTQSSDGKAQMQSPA
- Test description: cell-based or functional assay
# maps each entry to its % inhibition at 10 nM

Binder | Unit tag | % inhibition at 10 nM
M198-A08 (Fab, V domains shown) VH: EVQLLESGGGLVQPGGSLRLSCAASGFTFSWYMMQWVRQAPGKGLEWVSRISPSGGTTYADSVKGRFTISRDNSKNTLYLQMNSLRAEDTAVYYCAYRRTGIPRRDAFDIWGQGTMVTVSS VL: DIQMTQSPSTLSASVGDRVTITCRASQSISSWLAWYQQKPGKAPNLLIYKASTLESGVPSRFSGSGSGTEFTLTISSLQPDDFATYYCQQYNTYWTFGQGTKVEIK | % | 72.3
M202-C01 (Fab, V domains shown, Tested as Fab; printed HC runs into CH1) VH: EVQLLESGGGLVQPGGSLRLSCAASGFTFSHYIMMWVRQAPGKGLEWVSGIYSSGGITVYADSVKGRFTISRDNSKNTLYLQMNSLRAEDTAVYYCAYRRTGVPRWDDFDIWGQGTMVTVSS VL: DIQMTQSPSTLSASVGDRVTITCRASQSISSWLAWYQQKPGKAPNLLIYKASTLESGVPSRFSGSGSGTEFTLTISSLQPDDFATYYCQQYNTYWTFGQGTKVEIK | % | 96.3
M195-G02 (Fab, V domains shown) VH: EVQLLESGGGLVQPGGSLRLSCAASGFTFSPYNMMWVRQAPGKGLEWVSSIWPSGGTTDYADSVKGRFTISRDNSKNTLYLQMNSLRAEDTAVYYCAYRRTGIPRRDAFDIWGQGTMVTVSS VL: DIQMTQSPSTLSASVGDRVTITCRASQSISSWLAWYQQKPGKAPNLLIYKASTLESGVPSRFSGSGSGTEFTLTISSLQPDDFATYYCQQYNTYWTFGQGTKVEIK | % | 67.5
M198-G03 (Fab, V domains shown) VH: EVQLLESGGGLVQPGGSLRLSCAASGFTFSQYTMVWVRQAPGKGLEWVSWIYSSRANYADSVKGRFTISRDNSKNTLYLQMNSLRAEDTAVYYCAYRRTGIPRRDAFDIWGQGTMVTVSS VL: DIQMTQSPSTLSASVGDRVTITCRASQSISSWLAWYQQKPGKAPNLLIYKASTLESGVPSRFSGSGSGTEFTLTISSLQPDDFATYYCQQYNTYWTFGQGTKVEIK | % | 53.8
M198-H08 (Fab, V domains shown) VH: EVQLLESGGGLVQPGGSLRLSCAASGFTFSIYDMYWVRQAPGKGLEWVSSIGPSGGPTAYADSVKGRFTISRDNSKNTLYLQMNSLRAEDTAVYYCAYRRTGIPRRDAFDIWGQGTMVTVSS VL: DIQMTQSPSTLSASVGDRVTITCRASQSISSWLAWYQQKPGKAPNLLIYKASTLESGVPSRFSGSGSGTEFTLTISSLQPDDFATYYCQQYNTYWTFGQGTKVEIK | % | 92.3
M199-A11 (Fab, V domains shown) VH: EVQLLESGGGLVQPGGSLRLSCAASGFTFSHYIMMWVRQAPGKGLEWVSGIYSSGGITVYADSVKGRFTISRDNSKNTLYLQMNSLRAEDTAVYYCAYRRRGIPRRDAFDIWGQGTMVTVSS VL: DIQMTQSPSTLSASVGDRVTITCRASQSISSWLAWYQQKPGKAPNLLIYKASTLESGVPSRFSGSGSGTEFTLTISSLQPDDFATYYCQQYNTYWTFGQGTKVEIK | % | 65.4
M200-E11 (Fab, V domains shown) VH: EVQLLESGGGLVQPGGSLRLSCAASGFTFSHYIMMWVRQAPGKGLEWVSGIYSSGGITVYADSVKGRFTISRDNSKNTLYLQMNSLRAEDTAVYYCAYRRTGVPRRDAFDNWGQGTMVTVSS VL: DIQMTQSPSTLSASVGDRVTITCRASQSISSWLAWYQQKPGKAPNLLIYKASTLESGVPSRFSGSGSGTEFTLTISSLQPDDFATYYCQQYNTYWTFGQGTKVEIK | % | 83.2
M197-G10 (Fab, V domains shown) VH: EVQLLESGGGLVQPGGSLRLSCAASGFTFSVYAMRWVRQAPGKGLEWVSSIYPSGGKTWYADSVKGRFTISRDNSKNTLYLQMNSLRAEDTAVYYCAYRRTGIPRRDAFDIWGQGTMVTVSS VL: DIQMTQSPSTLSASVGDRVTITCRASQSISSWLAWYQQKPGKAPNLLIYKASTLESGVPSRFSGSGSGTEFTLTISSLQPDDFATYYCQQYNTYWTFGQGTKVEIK | % | 67.6
M195-A02 (Fab, V domains shown) VH: EVQLLESGGGLVQPGGSLRLSCAASGFTFSQYMMMWVRQAPGKGLEWVSGISSSGGHTDYADSVKGRFTISRDNSKNTLYLQMNSLRAEDTAVYYCAYRRTGIPRRDAFDIWGQGTMVTVSS VL: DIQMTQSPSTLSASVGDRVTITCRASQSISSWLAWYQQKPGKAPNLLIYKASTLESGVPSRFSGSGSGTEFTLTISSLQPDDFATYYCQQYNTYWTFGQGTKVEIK | % | 71.3
M197-C12 (Fab, V domains shown) VH: EVQLLESGGGLVQPGGSLRLSCAASGFTFSPYDMLWVRQAPGKGLEWVSYIVSSGGLTKYADSVKGRFTISRDNSKNTLYLQMNSLRAEDTAVYYCAYRRTGIPRRDAFDIWGQGTMVTVSS VL: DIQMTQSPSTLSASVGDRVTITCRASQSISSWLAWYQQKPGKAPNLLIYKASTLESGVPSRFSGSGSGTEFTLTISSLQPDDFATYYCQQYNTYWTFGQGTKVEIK | % | 56.4
